The compounds listed here are annotated with their CC50.
# Measurement description: Cytotoxicity against BHK cells after 48 to 96 hrs by MTT assay
# Type: cell-based, Mesocricetus auratus
# Condition parameters: hamster
Measurement label: CC50

O=[N+]([O-])c1ccc(-c2nc3cc(C(F)(F)F)ccc3n2C2CCCCC2)cc1 :: > 100 µM
O=C(CN1CCN(c2ccccc2)CC1)Nc1ccc(-c2nc3cc(C(F)(F)F)ccc3n2C23CC4CC(CC(C4)C2)C3)cc1 :: > 100 µM
COc1ccc(-c2nc3cc(C(F)(F)F)ccc3[nH]2)c(N)c1 :: ≥ 100 µM

* * *

# Measurement description: Cytotoxicity against MDBK cells after 48 to 96 hrs by MTT assay
# Type: cell-based, Bos taurus
# Condition parameters: cattle, MDBK cells
Overview of recorded CC50 for various compounds
Measurement label: CC50

CC(=O)Nc1ccc(-c2nc3ccccc3[nH]2)cc1 :: > 100 µM
O=C(CN1CCN(c2ccccc2)CC1)Nc1ccc(-c2nc3cc(C(F)(F)F)ccc3n2C23CC4CC(CC(C4)C2)C3)cc1 :: > 100 µM
Cn1c(-c2ccc(NC(=O)CN3CCOCC3)cc2)nc2cc(C(F)(F)F)ccc21 :: > 100 µM

* * *

# Measurement description: Cytotoxicity against human MT4 cells after 96 hrs by MTT assay
# Format: cell-based
# Condition parameters: MT4 cells
// boundary case: CC50 at 96 h equal to 20 µM maps to false (0); strictly smaller maps to true (1)

C[C@@]1(O)[C@H](O)[C@@H](CO)O[C@H]1n1cnc2c(=O)[nH]c(N)nc21 :: false (0)
COc1ccc(-c2nc3cc(C(C)=O)ccc3[nH]2)c(OC)c1OC :: false (0)
CN1CCN(CC(=O)Nc2ccc(-c3nc4cc(C(F)(F)F)ccc4n3C)cc2)CC1 :: false (0)
Cn1c(-c2ccc(NC(=O)CN3CCN(c4ccccc4)CC3)cc2)nc2cc(C(F)(F)F)ccc21 :: true (1)
COc1cc(-c2nc3cc(C(F)(F)F)ccc3[nH]2)cc(OC)c1OC :: true (1)
CCC(=O)Nc1ccc(-c2nc3cc(C(F)(F)F)ccc3n2C2CCCCC2)cc1 :: true (1)
O=C(CN1CCOCC1)Nc1ccc(-c2nc3cc(C(F)(F)F)ccc3[nH]2)cc1 :: false (0)
O=C(CNC12CC3CC(CC(C3)C1)C2)Nc1ccc(-c2nc3cc(C(F)(F)F)ccc3[nH]2)cc1 :: true (1)
Cn1c(-c2ccc(NC(=O)CN3CCSCC3)cc2)nc2cc(C(F)(F)F)ccc21 :: true (1)
O=C(CN1CCCC1)Nc1ccc(-c2nc3ccccc3[nH]2)cc1 :: false (0)
Fc1ccc(-c2nc3cc(C(F)(F)F)ccc3[nH]2)cc1 :: false (0)
CC(=O)Nc1ccc(-c2nc3cc(Cl)c(Cl)cc3[nH]2)cc1 :: false (0)
Nc1ccc(-c2nc3cc(C(F)(F)F)ccc3[nH]2)cc1 :: false (0)
COc1ccc(-c2nc3cc([N+](=O)[O-])ccc3[nH]2)c(OC)c1 :: false (0)
COc1cc(OC)cc(-c2nc3cc(C(F)(F)F)ccc3[nH]2)c1 :: true (1)
CN1CCN(CC(=O)Nc2ccc(-c3nc4cc(Cl)c(Cl)cc4[nH]3)cc2)CC1 :: true (1)
Cn1c(-c2ccc(NC(=O)CN3CCCC3)cc2)nc2cc(C(F)(F)F)ccc21 :: true (1)
Cn1c(-c2ccc(NC(=O)CN3CCOCC3)cc2)nc2cc(C(F)(F)F)ccc21 :: false (0)
O=[N+]([O-])c1ccccc1-c1nc2ccccc2[nH]1 :: false (0)
O=[N+]([O-])c1ccc(-c2nc3ccccc3[nH]2)c([N+](=O)[O-])c1 :: true (1)
COc1ccc(-c2nc3cc(C(F)(F)F)ccc3[nH]2)c(OC)c1 :: false (0)
O=C(O)CCC(=O)Nc1ccc(-c2nc3cc(C(F)(F)F)ccc3[nH]2)cc1 :: false (0)
CC(=O)Nc1ccc(-c2nc3cc(C(F)(F)F)ccc3n2C2CCCCC2)cc1 :: false (0)
CC(=O)Nc1ccc(-c2nc3cc(C(F)(F)F)ccc3[nH]2)cc1 :: true (1)
Nc1ccc(-c2nc3cc(C(F)(F)F)ccc3n2C2CCCCC2)cc1 :: false (0)
CC(=O)Nc1ccc(-c2nc3cc(C(F)(F)F)ccc3n2C23CC4CC(CC(C4)C2)C3)cc1 :: false (0)
O=[N+]([O-])c1ccc(-c2nc3cc(C(F)(F)F)ccc3[nH]2)c([N+](=O)[O-])c1 :: true (1)
CC(=O)Nc1ccc(-c2nc3cc(C(F)(F)F)ccc3n2C)cc1 :: true (1)
CCC(=O)Nc1ccc(-c2nc3cc(C(F)(F)F)ccc3n2C)cc1 :: true (1)
Oc1ccc(-c2nc3cc(C(F)(F)F)ccc3[nH]2)cc1 :: true (1)
O=[N+]([O-])c1ccc(-c2nc3cc(C(F)(F)F)ccc3n2C2CCCCC2)cc1 :: false (0)
